Catalogue of relative integration efficiency (log2) values
system: VchCAST RNA-guided transposition machinery (E. coli BL21(DE3) host, lacZ target); assay: relative integration efficiency (T-RL orientation) vs wild-type transposon end (log2 (normalized fold change)); transposon end mutated: left end; higher = more efficient transposition
Number only, please.

Need relative integration efficiency (log2), item AATGTTGTTGATGCACCCATAAATTGATATTGCATAATTATTTATAATCAGCAACTTAACCACAAAACAACCATAAGTTGATATTTTACAAAAGTTGGTATTCAACTATAAAATGTGAATCGAGTATTTCAGCAAAACTACTGCAGTAAGAA -3.46

Here is the next sequence: AATGTTGTTGATGCAACCATAAGTTGATATTTTATAATTATTTATAATCAGCAACTTAACCACAAAACAACCATAAAGTGATATTTAACAAAAGTTGGTATTCAACTATAAAATGTGAATCGAGTATTTCAGCAAAACTACTGCAGTAAGAA -2.4

Please turn your attention to the following entry.
Need relative integration efficiency (log2), item AATGTTGTTGATGCAACCATATATTGATATCTCATAATTATTTATAATCAGCAACTTAACCACAAAACACCCATAAATTGATAATTAACAAAAGTTGGTATTCAACTATAAAATGTGAATCGAGTATTTCAGCAAAACTACTGCAGTAAGAA -3.56

====

tested on: VchCAST RNA-guided transposition machinery (E. coli BL21(DE3) host, lacZ target); test: relative integration efficiency (T-LR orientation) vs wild-type transposon end (log2 (normalized fold change)); transposon end mutated: right end (5 bp flank + 75 bp right end); higher = more efficient transposition
So basically: relative integration efficiency (log2) at -0.5 or higher? That is y. Lower than -0.5? That is n.

Use the examples below as a reference point.
Evaluate ACATTTGTTGATACAACCATTAAATGATAATTCCACCCAAATATTGATAATTATCACACCCAATTTAACTATAACGCTCTGATCATAGTCAGACCAACATTGCTACGACCCGTATTCGCACCGACAC : relative integration efficiency (log2) at minimum -0.5? y

Here is the next sequence: ACATTTGTTGATACACCCATAAATTGATATTGCCAACCATAAGTTGATATTTTTCACAACCATAAAATGATAATTACTCTGATCATAGTCAGACCAACATTGCTACGACCCGTATTCGCACCGACAC y

Here is the next sequence: ACATTTGTTGATACACCCATAAATTGATAATTACACCCATAAATTGATATTGCTCACAACCATAAAGTGATATTTACTCTGATCATAGTCAGACCAACATTGCTACGACCCGTATTCGCACCGACAC y

Others:
Evaluate ACATTTGTTGATACAACCATAAAATGAGCCGGCCACCCATAAATTGAGCCGGCTCACACCCATAAATTGAGCGGTACTCTGATCATAGTCAGACCAACATTGCTACGACCCGTATTCGCACCGACAC : relative integration efficiency (log2) at minimum -0.5? n

Here is the next sequence: ACATTTGTTGATACAACCATATATTGATATCTCCAACCATAAAGTGATATTTATCACAACCATAAAGTGATATTTACTCTGATCATAGTCAGACCAACATTGCTACGACCCGTATTCGCACCGACAC y

Here is the next sequence: ACATTTGTTGATACAACCATAAAATGATAATTACACCCATACCGGGATAATTATCACACCCATAAATTGATATTGCCTCTGATCATAGTCAGACCAACATTGCTACGACCCGTATTCGCACCGACAC n

Here is the next sequence: ACATTTGCTGATAGAACCATATAATGATAATAACACCCATAAAATGATAATTATCACACCCAATTTAACTATAACGCTCTGATCATAGTCAGACCAACATTGCTACGACCCGTATTCGCACCGACAC n

Here is the next sequence: ACATTTGTTGATACAACCATAAAATTATAATTACACCCATAAATTTATAATTATCACACCCATAAATTTATATTGCCTCTGATCATAGTCAGACCAACATTGCTACGACCCGTATTCGCACCGACAC y

====

system: VchCAST RNA-guided transposition machinery (E. coli BL21(DE3) host, lacZ target); test: relative integration efficiency (T-RL orientation) vs wild-type transposon end (log2 (normalized fold change)); transposon end mutated: right end (5 bp flank + 75 bp right end); higher = more efficient transposition
Catalogue of relative integration efficiency (log2) values

A selection of reference data follows.
Need relative integration efficiency (log2), item ACATTTGTCGATACAACCATAAAATGATAATTACCACCCATAAATTGATAATTATCACACCCATTTAACTATAACGCTCTGATCATAGTCAGACCAACATTGCTACGACCCGTATTCGCACCGACAC -1.12

Here is the next sequence: ACATTTGTTGATACAACCATAAAATGATAATAACACCCATAAATTGATAATAATCACACCCATAAATTGATATTCCCTCTGATCATAGTCAGACCAACATTGCTACGACCCGTATTCGCACCGACAC -0.389

Others:
Need relative integration efficiency (log2), item ACATTAGTTGATACAACCATAAAATGATAATTACACCCATAAATGGATCATTATCACACCCAATTTAACTATAACGCTCTGATCATAGTCAGACCAACATTGCTACGACCCGTATTCGCACCGACAC -6.02

Here is the next sequence: ACATTTGTTGATACAACCATAAAATGATAATTAATAATTATTTATAATCAGCAACCACCCATAAATTGATAATTATCACACCCATAAATTGATATTGCCTCTGATCATAGTCAGACCAACATTGCTA -3.26

Here is the next sequence: ACATTTGCTGATACAACCATATAATGATAATAACACCCATAAAATGATAATTATCACACCCAATTTAACTATAACGCTCTGATCATAGTCAGACCAACATTGCTACGACCCGTATTCGCACCGACAC -2.08

Here is the next sequence: ACATTTGTTGATACAACCATAAAATGATAATTACTCTGATCATAGTCAGACCAACATTGCTACGACCCGTATTCGCACCGACACAACGACTATCACCCATAAATTGATAATTATCAGTGGGTATTTA -1.16

Here is the next sequence: ACATTTGTTGATACAACCATAAAATGATAATTAACAAACGCCCGGTCGCCGGCTCAACAAACGCCCGGTCGCGGTACTCTGATCATAGTCAGACCAACATTGCTACGACCCGTATTCGCACCGACAC -1.98

Here is the next sequence: ACATTTGTTGATACAACCATAAAACGATAATTACACCCATAAATGGATCATTATCACACCCAATTTAACTATAACGCTCTGATCATAGTCAGACCAACATTGCTACGACCCGTATTCGCACCGACAC -1.78

Here is the next sequence: ACATTTGTTGATACAACCATAAAAGGATAATTACACCCATAAATTGATAATTATCACACCCCATTTAACTATAACGCTCTGATCATAGTCAGACCAACATTGCTACGACCCGTATTCGCACCGACAC -1.31

====

test system: VchCAST RNA-guided transposition machinery (E. coli BL21(DE3) host, lacZ target); assay: relative integration efficiency (T-LR orientation) vs wild-type transposon end (log2 (normalized fold change)); transposon end mutated: right end (5 bp flank + 75 bp right end); higher = more efficient transposition
Catalogue of relative integration efficiency (log2) values
Number only, please.

A selection of reference data follows.
Param readout = relative integration efficiency (log2); param system = VchCAST RNA-guided transposition machinery (E. coli BL21(DE3) host, lacZ target); param query = ACATTTGTTGATACAACCATAAAATGATAATTACACCCATAACGGTATAATTATCACACCCATAAATTGATATTGCCTCTGATCATAGTCAGACCAACATTGCTACGACCCGTATTCGCACCGACAC ; response: value -1.21

Here is the next sequence: ACATTTGTTGATACAACCATAAAGTGATATTTACAACCATATATTGATATCTCTCAGTGGGTATTTAACTATAACGCTCTGATCATAGTCAGACCAACATTGCTACGACCCGTATTCGCACCGACAC 2.6

Here is the next sequence: ACATTTGTTGATACAACCATAAAATGATAATTATAATTATCATTTTATGGTTGTCATAATTATCATTTTATGGTTGCTCTGATCATAGTCAGACCAACATTGCTACGACCCGTATTCGCACCGACAC 0.158

Here is the next sequence: AGTTTTGTTGATACAACCATAAAATGATAATTACACCCATAAATTGATAATTATCACACCCATAAATTGATATTGCCTCTGATCATAGTCAGACCAACATTGCTACGACCCGTATTCGCACCGACAC 0.122

Here is the next sequence: ACATTTGTTGATACAACCATAAAAGGATCATTACCCCCATAAATTGATAATTATCACACCCCATTTAACTATAACGCTCTGATCATAGTCAGACCAACATTGCTACGACCCGTATTCGCACCGACAC 1.16

Here is the next sequence: ACATTTGTTGATACAACCAATTTATGATAATTACACCCATAAATTGATAATTATCACACCCATAAATTGATATTGCCTCTGATCATAGTCAGACCAACATTGCTACGACCCGTATTCGCACCGACAC -0.66

Here is the next sequence: ACATTTGTTGATACAACCATAAAATGATAATTACCACCCATACATTGATAATTATCACACCCATTTAACTATAACGCTCTGATCATAGTCAGACCAACATTGCTACGACCCGTATTCGCACCGACAC 0.106

Here is the next sequence: ACATTTGTTGATACAACCATTTAATGATAATTACACCCATAAATTGATAATTATCACACCCATAAATTGATATTGCCTCTGATCATAGTCAGACCAACATTGCTACGACCCGTATTCGCACCGACAC -0.232

Here is the next sequence: ACATTTGTTGATACAACCATAAAATGATAATTACACCCATAAATTGATAATTTAGTCACCCATAAATTGATATTGCCTCTGATCATAGTCAGACCAACATTGCTACGACCCGTATTCGCACCGACAC 0.247

Please turn your attention to the following entry.
Param readout = relative integration efficiency (log2); param system = VchCAST RNA-guided transposition machinery (E. coli BL21(DE3) host, lacZ target); param query = ACATTTGTTGATACAACCATAAAATGATAATTACACCCATAAATTGATAATTATCACACCCATAAATTGATATTGCCTCTTCATGGTCTAAACTTCAGTTTCAAATGCTGATTTTCAGCACCGACAC ; response: value 0.262
